relative viability reference
# Test system: COR-L23
# assay.notes: relative viability (nuclei count vs DMSO), 5 days (fraction); higher = more cells survive
# conditions: first compound 1 µM

compound: NC(=O)Nc1cc(-c2cccc(F)c2)sc1C(=O)N[C@H]1CCCNC1 [AZD7762] + Cc1nc(NC(=O)N2CCC[C@H]2C(N)=O)sc1-c1ccnc(C(C)(C)C(F)(F)F)c1 [Alpelisib] (partner 2 µM)
relative viability: 0.162
--
compound: NC(=O)Nc1cc(-c2cccc(F)c2)sc1C(=O)N[C@H]1CCCNC1 [AZD7762] + CC(=O)c1c(C)c2cnc(Nc3ccc(N4CCNCC4)cn3)nc2n(C2CCCC2)c1=O [Palbociclib] (partner 0.5 µM)
relative viability: 0.117
--
compound: NC(=O)Nc1cc(-c2cccc(F)c2)sc1C(=O)N[C@H]1CCCNC1 [AZD7762] + CS(=O)(=O)N1CCN(Cc2cc3nc(-c4cccc5[nH]ncc45)nc(N4CCOCC4)c3s2)CC1 [Pictilisib] (partner 1 µM)
relative viability: 0.288
--
compound: NC(=O)Nc1cc(-c2cccc(F)c2)sc1C(=O)N[C@H]1CCCNC1 [AZD7762] + COc1cccc2cc(-c3nc([C@H]4CC[C@H](C(=O)O)CC4)n4ncnc(N)c34)[nH]c12 [OSI-027] (partner 0.5 µM)
relative viability: 0.285

----------
# Tested on: LC-2-ad
# assay.notes: relative viability (nuclei count vs DMSO), 5 days (fraction); higher = more cells survive
# conditions: first compound 0.005 µM
quantity.measured: relative viability

compound: CC1(C)CCC(c2ccc(Cl)cc2)=C(CN2CCN(c3ccc(C(=O)NS(=O)(=O)c4ccc(N[C@H](CCN5CCOCC5)CSc5ccccc5)c(S(=O)(=O)C(F)(F)F)c4)cc3)CC2)C1 [Navitoclax] + N=C(N)NC(=N)NCCc1ccccc1 [Phenformin] (partner 250 µM)
value.measured: 0.577

compound: CC1(C)CCC(c2ccc(Cl)cc2)=C(CN2CCN(c3ccc(C(=O)NS(=O)(=O)c4ccc(N[C@H](CCN5CCOCC5)CSc5ccccc5)c(S(=O)(=O)C(F)(F)F)c4)cc3)CC2)C1 [Navitoclax] + CCNC(=O)c1noc(-c2cc(C(C)C)c(O)cc2O)c1-c1ccc(CN2CCOCC2)cc1 [Luminespib] (partner 0.01 µM)
value.measured: 0.993

compound: CC1(C)CCC(c2ccc(Cl)cc2)=C(CN2CCN(c3ccc(C(=O)NS(=O)(=O)c4ccc(N[C@H](CCN5CCOCC5)CSc5ccccc5)c(S(=O)(=O)C(F)(F)F)c4)cc3)CC2)C1 [Navitoclax] + CS(=O)(=O)CCNCc1ccc(-c2ccc3ncnc(Nc4ccc(OCc5cccc(F)c5)c(Cl)c4)c3c2)o1 [Lapatinib] (partner 2 µM)
value.measured: 0.936

compound: CC1(C)CCC(c2ccc(Cl)cc2)=C(CN2CCN(c3ccc(C(=O)NS(=O)(=O)c4ccc(N[C@H](CCN5CCOCC5)CSc5ccccc5)c(S(=O)(=O)C(F)(F)F)c4)cc3)CC2)C1 [Navitoclax] + O=C(c1cc(Cc2n[nH]c(=O)c3ccccc23)ccc1F)N1CCN(C(=O)C2CC2)CC1 [Olaparib] (partner 8 µM)
value.measured: 0.729

----------
# Test system: NCI-H460
# assay.notes: relative viability (nuclei count vs DMSO), 5 days (fraction); higher = more cells survive
# conditions: first compound 1.265 µM
// classify: if (relative viability < 0.5) 1.0 else 0.0

compound: O=C(O)c1ccc(-c2c[nH]c3ncc(-c4ccccc4)cc23)cc1C1CCCC1 + Nc1ncn([C@H]2C[C@H](O)[C@@H](CO)O2)c(=O)n1 [Decitabine] (partner 2 µM)
assayed.target: NCI-H460
label.value: 1.0
//
compound: O=C(O)c1ccc(-c2c[nH]c3ncc(-c4ccccc4)cc23)cc1C1CCCC1 + COc1cc2c(Oc3ccc(NC(=O)C4(C(=O)Nc5ccc(F)cc5)CC4)cc3F)ccnc2cc1OCCCN1CCOCC1 [Foretinib] (partner 0.25 µM)
assayed.target: NCI-H460
label.value: 0.0
//
compound: O=C(O)c1ccc(-c2c[nH]c3ncc(-c4ccccc4)cc23)cc1C1CCCC1 + C[C@@H](Oc1cc(-c2cnn(C3CCNCC3)c2)cnc1N)c1c(Cl)ccc(F)c1Cl [Crizotinib] (partner 1 µM)
assayed.target: NCI-H460
label.value: 0.0
//
compound: O=C(O)c1ccc(-c2c[nH]c3ncc(-c4ccccc4)cc23)cc1C1CCCC1 + Nc1nc2[nH]cc(CCc3ccc(C(=O)N[C@@H](CCC(=O)O)C(=O)O)cc3)c2c(=O)[nH]1 [Pemetrexed] (partner 0.2 µM)
assayed.target: NCI-H460
label.value: 1.0
